B1: glmS ribozyme (parent)
chain: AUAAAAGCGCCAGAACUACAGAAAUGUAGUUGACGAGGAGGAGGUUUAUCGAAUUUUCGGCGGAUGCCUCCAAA

- Variants of: B1
- Test: self-cleavage kobs at 2500 uM GlcN6P; higher = faster cleavage; RNA array
- Assay Conditions: with glucosamine-6-phosphate
Variants at the floor of the assay were thinned out.
Please go through the items and note down their self-cleavage kobs at 2500 uM GlcN6P.

Please give the measured self-cleavage kobs at 2500 uM GlcN6P for this variant: C8U C10A
< 1e-05 s⁻¹

Which measured self-cleavage kobs at 2500 uM GlcN6P value corresponds to C8A C11A G37U G41C A53C G63C ?
< 1e-05 s⁻¹

Item G35C G40U A52U G63U has what recorded self-cleavage kobs at 2500 uM GlcN6P?
< 1e-05 s⁻¹
